The reported numbers originate from paper PMC3863468.

test-summary: Pharmacokinetic experiment: serum imatinib and N-desmethyl imatinib by HPLC after oral imatinib with or without apigenin
run-conditions: group A: control (0.5% CMC-Na), then single oral 30 mg/kg imatinib; rat serum; n = 5
readout-name: CLz/F (mL/min/kg)
Answers are plain numbers, in mL/min/kg.

In: I have this compound here, Cc1ccc(NC(=O)c2ccc(CN3CCNCC3)cc2)cc1Nc1nccc(-c2cccnc2)n1 , and I need its recorded CLz/F.
Out: 81.9

----------
test-summary: Pharmacokinetic experiment: serum imatinib and N-desmethyl imatinib by HPLC after oral imatinib with or without apigenin
run-conditions: group D: single dose apigenin 252 mg/kg, then single oral 30 mg/kg imatinib; rat serum; n = 5
readout-name: Vz/F (L/kg)
Answers are plain numbers, in L/kg.

In: I have this compound here, Cc1ccc(NC(=O)c2ccc(CN3CCNCC3)cc2)cc1Nc1nccc(-c2cccnc2)n1 [N-desmethyl imatinib] , and I need its recorded Vz/F.
Out: 43.5

----------
test-summary: Pharmacokinetic experiment: serum imatinib and N-desmethyl imatinib by HPLC after oral imatinib with or without apigenin
run-conditions: group B: apigenin 165 mg/kg for 15 days, then single oral 30 mg/kg imatinib; rat serum; n = 5
readout-name: CLz/F (mL/min/kg)
One number for each entry, in mL/min/kg.

In: I have this molecule here, Cc1ccc(NC(=O)c2ccc(CN3CCNCC3)cc2)cc1Nc1nccc(-c2cccnc2)n1 , and I need its recorded CLz/F.
Out: 75.9

----------
test-summary: in vivo
run-conditions: male, Sprague-Dawley, rat, in vivo, po, 30 mg/kg, T max
readout-name: Tmax (h)
Answers are plain numbers, in h.

In: I have this compound here, Cc1ccc(NC(=O)c2ccc(CN3CCN(C)CC3)cc2)cc1Nc1nccc(-c2cccnc2)n1 [imatinib, reference compound] , and I need its recorded Tmax.
Out: 3

----------
test-summary: Pharmacokinetic experiment: serum imatinib and N-desmethyl imatinib by HPLC after oral imatinib with or without apigenin
run-conditions: group B: apigenin 165 mg/kg for 15 days, then single oral 30 mg/kg imatinib; rat serum; n = 5
readout-name: Vz/F (L/kg)
One number for each entry, in L/kg.

In: I have this compound here, Cc1ccc(NC(=O)c2ccc(CN3CCNCC3)cc2)cc1Nc1nccc(-c2cccnc2)n1 [N-desmethyl imatinib] , and I need its recorded Vz/F.
Out: 26.8

----------
test-summary: Pharmacokinetic experiment: serum imatinib and N-desmethyl imatinib by HPLC after oral imatinib with or without apigenin
run-conditions: group A: control (0.5% CMC-Na), then single oral 30 mg/kg imatinib; rat serum; n = 5
readout-name: Vz/F (L/kg)
Give bare numbers, in L/kg.

In: I have this compound here, Cc1ccc(NC(=O)c2ccc(CN3CCNCC3)cc2)cc1Nc1nccc(-c2cccnc2)n1 , and I need its recorded Vz/F.
Out: 32.8

----------
test-summary: Pharmacokinetic experiment: serum imatinib and N-desmethyl imatinib by HPLC after oral imatinib with or without apigenin
run-conditions: group C: single dose apigenin 165 mg/kg, then single oral 30 mg/kg imatinib; rat serum; n = 5
readout-name: Vz/F (L/kg)
Numbers only, in L/kg.

In: I have this compound here, Cc1ccc(NC(=O)c2ccc(CN3CCNCC3)cc2)cc1Nc1nccc(-c2cccnc2)n1 , and I need its recorded Vz/F.
Out: 40.7
